experiment description: Tested for its maximal percent change of delaying functional refractory period in uM
Task for the reader: assign each of the following compounds its reported Max delta FRP.
# output: numeric value plus its unit

Entry under test: CC(=O)N(CCOc1ccccc1)CCc1ccc(NS(C)(=O)=O)cc1 . Its Max delta FRP was 58.4%

# Max delta FRP of CN(CCOc1ccc(NS(C)(=O)=O)cc1)CCc1ccc(NS(C)(=O)=O)cc1 [DOFETILIDE] = 24%

Max delta FRP recorded for this compound, CS(=O)(=O)Nc1ccc(CCN(CCOc2ccccc2)C(=O)c2ccccc2)cc1 , is 5.33%

The recorded Max delta FRP for entry CN(CCOc1ccccc1)CCc1ccc(N(S(C)(=O)=O)S(C)(=O)=O)cc1 equals 12%

For this compound ( CN(CCOc1ccccc1)CCc1ccc(NS(C)(=O)=O)cc1 ), measured Max delta FRP is 20.2%

Lab note: C=CCN(CCOc1ccccc1)CCc1ccc(NS(C)(=O)=O)cc1 gave Max delta FRP of 9.77%

Measured values drawn from ChEMBL document CHEMBL1133140 for this set.
